The values you see were collected from ChEMBL document CHEMBL2331168.

System: Mus musculus
Test Description: Anticonvulsant activity in albino mouse assessed as protection against maximal electroshock-induced seizures at 100 mg/kg, ip after 0.5 hrs
Assay type: functional, organism-based
Design: dose 100 mg/kg
Active and inactive are the calls of the source. The calls are words filed in the database; no cut-off is given here.
Assign a class; possible classes are 1 (yes) for active, 0 (no) for inactive

Task: Which result was noted for this compound in the test: CCC(CO)NCc1cccc2c(=O)c3ccc(OC)cc3oc12 (racemic)
Output: 1 (yes)

Task: Outcome logged for COc1ccc2c(=O)c3cccc(CN(C)C(C)CO)c3oc2c1 (racemic) in this assay:
Output: 0 (no)

Task: Assay result, entry `COc1ccc2c(=O)c3cccc(CN[C@H](C)CO)c3oc2c1` — outcome?
Output: 0 (no)

Task: Would you mind telling me which call this test gave CCC(CO)NCc1ccc2oc3cc(OC)ccc3c(=O)c2c1 (racemic) ?
Output: 1 (yes)

Task: Recorded test outcome, item `CC[C@H](CO)NCc1ccc2oc3cc(OC)ccc3c(=O)c2c1`
Output: 1 (yes)

Task: State the result this test recorded for `CC[C@@H](CO)NCc1ccc2oc3cc(OC)ccc3c(=O)c2c1` .
Output: 1 (yes)

Task: How did this test come out for COc1ccc2c(=O)c3cccc(CNCC(C)O)c3oc2c1 (racemic) ?
Output: 1 (yes)

Task: // return assay outcome for `COc1ccc2c(=O)c3cccc(CNC(C)(C)CO)c3oc2c1`
Output: 1 (yes)

Task: Which outcome was assigned to CC(CO)NCc1ccc2oc3ccc(Cl)cc3c(=O)c2c1 (racemic) in this test?
Output: 0 (no)

Task: What call does the record list for `CC(C)(CO)NCc1ccc2oc3ccc(Cl)cc3c(=O)c2c1` ?
Output: 0 (no)
